target-of-assay: 5-HT2 receptor (Homo sapiens)
Sequence (P28223 whole entry): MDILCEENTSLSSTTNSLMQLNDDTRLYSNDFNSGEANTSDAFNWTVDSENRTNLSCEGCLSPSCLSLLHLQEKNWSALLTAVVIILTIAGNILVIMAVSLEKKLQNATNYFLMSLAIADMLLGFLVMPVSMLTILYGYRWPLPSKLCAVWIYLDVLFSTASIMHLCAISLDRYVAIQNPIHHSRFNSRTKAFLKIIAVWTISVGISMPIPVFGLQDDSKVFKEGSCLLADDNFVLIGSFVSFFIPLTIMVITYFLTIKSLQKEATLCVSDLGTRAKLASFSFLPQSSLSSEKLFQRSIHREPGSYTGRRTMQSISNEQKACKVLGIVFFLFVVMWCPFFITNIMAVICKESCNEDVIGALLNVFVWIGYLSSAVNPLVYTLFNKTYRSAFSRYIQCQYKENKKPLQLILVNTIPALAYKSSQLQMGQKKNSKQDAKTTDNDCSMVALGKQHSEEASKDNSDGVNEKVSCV
test: Affinity for 5-HT2 receptors
Assay type: binding
property: Ki

1. c1ccc2c(c1)Cc1ccccc1C21CCNC1 [Compound 5]    0.001 to 0.5 µM

###

Test system 5-HT2A serotonin receptor (Homo sapiens, UniProt P28223), log10 Ki listed for each of the compounds.
property: log10 Ki (log10 of the value in nM)

1. c1ccc(CN2CCC3(C2)c2ccccc2Cc2ccccc23)cc1    2.34
2. c1ccc2c(c1)Sc1ccccc1C21CCNC1 [Compound 36, Spiro[thioxanthenyl]-9,3′-pyrrolidine]    0.70
3. c1ccc2c(c1)Cc1ccccc1C21CCNC1    0.58
4. CC1(C)c2ccccc2C2(CCNC2)c2ccccc21    1.83
5. Oc1ccc2c(c1)Cc1ccccc1C21CCNC1 (centres unmarked)    0.96
